For each of the compounds below, state its max response.
- System: KB-3-1
- measurement.protocol: Cytotoxic Profiling of Annotated Libraries Using Quantitative High-Throughput Screening (AID 1296008); note: % is set by controls: 0 for no effect and ±100 for the full control effect; nearly all actives have a fitted effect of over 60% in size
- assay.setup: Five cell lines viability, CellTiter-Glo ATP luminescence, 48-72 h; stronger effect = lower value
Results filed as inconclusive are left out.
Provide only the numeric value, understood in %.

Q. So what does the record say about max response for COc1cccc(Nc2ncnn3ccc(CN4CC[C@@H](N)[C@H](O)C4)c23)c1 ?
A. -14.7

Q. So what does the record say about max response for O=C(O)c1ccc(CN2CCC(CN[C@@H]3C[C@H]3c3ccccc3)CC2)cc1 ?
A. 6.54

Q. So what does the record say about max response for O=C(O)C(O[C@@H]1O[C@H](CO[C@@H]2O[C@H](CO)[C@@H](O)[C@H](O)[C@H]2O)[C@@H](O)[C@H](O)[C@H]1O)c1ccccc1 (some centres undefined) ?
A. 7.09

Q. So what does the record say about max response for C/C(=C\CC[C@@H](C)[C@H]1CC(O)[C@@]2(C)C3CC[C@H]4C(C)(C)[C@@H](OC5OCC(O)C(O)C5OC5OC(CO)C(O)C(O)C5O)CC[C@@]45C[C@@]35CC(O)[C@]12C)C(=O)O (some centres undefined) ?
A. 6

---

- Tested on: PA-1
- measurement.protocol: Primary qHTS to identify gynecologic anti-cancer compounds using libraries of approved drugs and bioactive compounds (AID 1345084); note: nearly all actives have a fitted effect of over 55% in size
- assay.setup: Gynecologic cancer cell panel viability, ATPlite luminescence, 48 h; series mostly up to 57.5 µM
Inconclusive results are not listed. Activity calls are given as the source filed them. The call rests on the fitted dose curve; in most records, active means well fitted cell-killing curve with a large enough effect; inconclusive means small, poorly fitted or top-dose-only effect, or effect the other way; inactive means flat fitted curve, though single readings scatter.
Answer with one of the outcomes yes (active), no (inactive)

Q. // return assay outcome for CN(C)c1ccc2c(c1)OC(N)=C(C#N)C2c1cccc(C(F)(F)F)c1 (configuration not stated)
A. yes

Q. // return assay outcome for COc1cc([C@H]2c3cc(O)c(OC)cc3C[C@@H](CO[C@@H]3O[C@H](CO)[C@@H](O)[C@H](O)[C@H]3O)[C@@H]2CO)ccc1O
A. no

Q. // return assay outcome for Nc1ncnc2c1nc(N)n2[C@@H]1O[C@H](CO)[C@@H](O)[C@H]1O
A. yes

Q. // return assay outcome for COC(=O)[C@@H](O)[C@H]1[C@@]2(C)CC3(O)[C@@H](C(=O)[C@H]2O)[C@]24O[C@]25CC(=O)O[C@@H](c2ccoc2)[C@]5(C)CCC4[C@]13C (some centres not stated)
A. no

Q. // return assay outcome for CC[C@H]1OC(=O)[C@H](C)[C@@H](O[C@H]2C[C@@](C)(OC)[C@@H](O)[C@H](C)O2)[C@H](C)[C@@H](O[C@@H]2O[C@H](C)C[C@H](N(C)C)[C@H]2O)[C@](C)(O)C[C@@H](C)C(=O)[C@H](C)[C@H]2OC(=O)O[C@@]21C
A. no

Q. // return assay outcome for O=S(=O)(c1ccc(S(=O)(=O)n2cnc3ccccc32)cc1)N1CCCCCC1
A. no

Q. // return assay outcome for C=CC(=O)Nc1cc(Nc2nccc(-c3c[nH]c4ccccc34)n2)c(OC)cc1N(C)CCN(C)C
A. yes

---

- Tested on: Zika virus NS2B-NS3 protease (linked construct)
- measurement.protocol: Primary screen NINDS Rhodamine qHTS for Zika virus inhibitors (AID 1347160); note: % is set by controls: 0 for no effect and ±100 for the full control effect; nearly all actives have a fitted effect of over 55% in size
- assay.setup: purified NS2B-NS3 protease, Rhodamine110 substrate fluorescence; series mostly up to 57.1 µM
Results filed as inconclusive are left out. Activity calls are given as the source filed them. Calls follow the shape of the dose curve; as a rule, active = well fitted inhibition curve with a large enough effect; inconclusive = small, poorly fitted or top-dose-only effect; inactive = no such curve, though single readings can be large or run the other way.
readout.kind: activity change, negative = inhibition

Q. So what does the record say about activity change, negative = inhibition for COC1CC(O[C@H]2CC[C@@]3(C)C(CCC4C3[C@H](OC(C)=O)[C@@H](OC(=O)/C=C/c3ccccc3)[C@]3(C)C(C(C)=O)CC[C@]43O)C2)OC(C)C1OC1CC(OC)C(OC2CC(OC)C(OC3OC(C)C(OC4OC(CO)C(O)C(O)C4O)C(OC)C3O)C(C)O2)C(C)O1 (some centres undefined) ?
A. 20.6% [at 10.7 µM] (inactive)

Q. So what does the record say about activity change, negative = inhibition for C1CCC[C@H]2CCCN3CC[C@@H](CCCCCC[C@@H]4CCCN5CC[C@@H](CC1)O[C@@H]45)O[C@@H]23 ?
A. 20.2% [at 0.092 µM] (inactive)

Q. So what does the record say about activity change, negative = inhibition for O=C(O)C1CN(Cc2ccc(-c3nc4cc(Cc5ccccc5F)ccc4s3)c(F)c2)C1 ?
A. -8.39% [at 10.7 µM] (inactive)

Q. So what does the record say about activity change, negative = inhibition for C[C@@H]1CC[C@]2(C(=O)O[C@@H]3O[C@H](CO)[C@@H](O)[C@H](O)[C@H]3O)CC[C@]3(C)C(=CCC4[C@@]5(C)C[C@@H](O)[C@H](O)[C@@](C)(C(=O)O[C@H]6[C@H](O)C[C@@]7(C)C(CC[C@]8(C)C7CC=C7[C@H]9[C@](C(=O)O[C@@H]%10O[C@H](CO)[C@@H](O)[C@H](O)[C@H]%10O)(CC[C@@H](C)[C@@]9(C)O)CC[C@]78C)[C@@]6(CO)C(=O)O)C5CC[C@]43C)[C@@H]2[C@]1(C)O (some centres undefined) ?
A. -25.7% [at 10.7 µM] (inactive)

Hello, the source for this data is PubChem BioAssay (NCATS), in case you need it.
